# credit: the supplement of paper PMC9112550

Below, each of the sequences is paired with its reported shrunken log2 fold change value.
Test system: Escherichia coli TOP10
assay.remarks: shrunken log2 fold change of peptide-encoding DNA abundance (4.5 h post-induction vs induction); higher = less antimicrobial activity (less host growth inhibition)
assay.setup: time post-induction: 4.5 h; library: site-saturation at positions 5, 18, 19, 20
measured.endpoint: shrunken log2 fold change

RRIRPRPPRLPRPRPRPGKIPRP: -0.168
RRIRMRPPRLPRPRPRPRTCPRP: 0.00872
RRIRERPPRLPRPRPRPMQWPRP: 0.00938
RRIRLRPPRLPRPRPRPMSGPRP: -0.0068
RRIRWRPPRLPRPRPRPPLHPRP: 0.417
RRIRIRPPRLPRPRPRPRFHPRP: -0.42

###

System: Escherichia coli TOP10
assay.remarks: shrunken log2 fold change of peptide-encoding DNA abundance (4.5 h post-induction vs induction); higher = less antimicrobial activity (less host growth inhibition)
assay.setup: time post-induction: 4.5 h; library: site-saturation at positions 5, 18, 19, 20
Catalogue of sequences with associated shrunken log2 fold change
measured.endpoint: shrunken log2 fold change

RRIRSRPPRLPRPRPRPDYFPRP: -0.133
RRIRKRPPRLPRPRPRPILLPRP: -0.313
RRIRDRPPRLPRPRPRPKLTPRP: -0.0121
RRIRYRPPRLPRPRPRPNFAPRP: 0.137

###

Tested on: Escherichia coli TOP10
assay.remarks: shrunken log2 fold change of peptide-encoding DNA abundance (4.5 h post-induction vs induction); higher = less antimicrobial activity (less host growth inhibition)
assay.setup: time post-induction: 4.5 h; library: site-saturation at positions 5, 18, 19, 20
measured.endpoint: shrunken log2 fold change

RRIRLRPPRLPRPRPRPHENPRP: 0.0369
RRIRMRPPRLPRPRPRPNFKPRP: -0.0166
RRIRTRPPRLPRPRPRPSHMPRP: -0.7
RRIRARPPRLPRPRPRPHVQPRP: 0.00547
RRIRTRPPRLPRPRPRPKSHPRP: -0.365
RRIRLRPPRLPRPRPRPHWLPRP: -0.0104
RRIRARPPRLPRPRPRPLSYPRP: -0.00336
RRIRQRPPRLPRPRPRPMQQPRP: -0.0642
RRIRLRPPRLPRPRPRPFVYPRP: -0.476
RRIRERPPRLPRPRPRPQPMPRP: -0.185

###

Each entry below carries its reported shrunken log2 fold change.
Test system: Escherichia coli TOP10;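 further: peptides expressed intracellularly from a pBAD plasmid library in pooled LB shake-flask culture, induced with 0.3% L-arabinose, DNA abundance read by NGS, three biological replicates, DESeq2 with apeglm shrinkage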
assay.remarks: shrunken log2 fold change of peptide-encoding DNA abundance (4.5 h post-induction vs induction); higher = less antimicrobial activity (less host growth inhibition)
assay.setup: time post-induction: 4.5 h; library: site-saturation at positions 5, 18, 19, 20
measured.endpoint: shrunken log2 fold change

RRIRVRPPRLPRPRPRPKKWPRP: -0.00649
RRIRTRPPRLPRPRPRPIQRPRP: 0.0582
RRIRGRPPRLPRPRPRPGVVPRP: 1.43
RRIRCRPPRLPRPRPRPRWYPRP: -0.134
RRIRQRPPRLPRPRPRPQPNPRP: 0.26
RRIRDRPPRLPRPRPRPYSQPRP: -0.0305
RRIRYRPPRLPRPRPRPRKEPRP: 0.00543
RRIRPRPPRLPRPRPRPPGVPRP: 0.517
RRIRARPPRLPRPRPRPCAVPRP: 0.365
RRIRDRPPRLPRPRPRPQSCPRP: -0.0045
RRIRKRPPRLPRPRPRPYVEPRP: -1.51
RRIRLRPPRLPRPRPRPEFVPRP: 0.0203
RRIRNRPPRLPRPRPRPLIGPRP: -0.0791
RRIRTRPPRLPRPRPRPMYSPRP: -0.00295
RRIRCRPPRLPRPRPRPQWAPRP: 0.0425
RRIRYRPPRLPRPRPRPDDQPRP: -0.0136
RRIRIRPPRLPRPRPRPMMPPRP: -0.238
RRIRDRPPRLPRPRPRPWFEPRP: -0.175
RRIRGRPPRLPRPRPRPLWNPRP: 0.116
RRIRKRPPRLPRPRPRPDRFPRP: -0.0614
RRIRVRPPRLPRPRPRPVCKPRP: -0.444
RRIRYRPPRLPRPRPRPVIYPRP: -0.0529
RRIRGRPPRLPRPRPRPQAGPRP: 0.695
RRIRLRPPRLPRPRPRPCWAPRP: -0.0392
RRIRHRPPRLPRPRPRPCMMPRP: -0.0344
RRIRGRPPRLPRPRPRPATIPRP: 0.138
RRIRARPPRLPRPRPRPIHWPRP: 0.0725
RRIRHRPPRLPRPRPRPFNAPRP: -0.495
RRIRERPPRLPRPRPRPRIVPRP: -0.0184
RRIRERPPRLPRPRPRPYVNPRP: 0.0121
RRIRNRPPRLPRPRPRPIIHPRP: -0.712
RRIRYRPPRLPRPRPRPNEGPRP: -0.363
RRIRIRPPRLPRPRPRPCPYPRP: -0.269
RRIRCRPPRLPRPRPRPLESPRP: 0.0242
RRIRSRPPRLPRPRPRPGQAPRP: 0.0166
RRIRKRPPRLPRPRPRPTMKPRP: -0.0364
RRIRFRPPRLPRPRPRPTPFPRP: 0.266
RRIRVRPPRLPRPRPRPSIIPRP: -0.384
RRIRGRPPRLPRPRPRPHELPRP: 0.871
RRIRGRPPRLPRPRPRPKVKPRP: 0.547
RRIRVRPPRLPRPRPRPREAPRP: 0.0545
RRIRHRPPRLPRPRPRPEPWPRP: 0.171
RRIRIRPPRLPRPRPRPWWNPRP: -0.0623
RRIRTRPPRLPRPRPRPLNLPRP: -0.548
RRIRCRPPRLPRPRPRPNLLPRP: -0.572
RRIRHRPPRLPRPRPRPQMIPRP: -0.139
RRIRKRPPRLPRPRPRPNQEPRP: -0.0316
RRIRPRPPRLPRPRPRPNTQPRP: -0.159
RRIRSRPPRLPRPRPRPKTMPRP: 0.0109
RRIRNRPPRLPRPRPRPVYFPRP: -0.301
RRIRSRPPRLPRPRPRPGFWPRP: 0.654
RRIRTRPPRLPRPRPRPPHHPRP: -0.149
RRIRWRPPRLPRPRPRPDHKPRP: -0.134
